Ki reference
# assay-system: 5-HT1A serotonin receptor (Rattus norvegicus, UniProt P19327)
# Construct: Hippocampal tissue from male Sprague Dawley rats is dissected and homogenized; from tissue; host or cells: hippocampus of male Sprague Dawley rats, membrane homogenate
# Sequence (P19327 1-422): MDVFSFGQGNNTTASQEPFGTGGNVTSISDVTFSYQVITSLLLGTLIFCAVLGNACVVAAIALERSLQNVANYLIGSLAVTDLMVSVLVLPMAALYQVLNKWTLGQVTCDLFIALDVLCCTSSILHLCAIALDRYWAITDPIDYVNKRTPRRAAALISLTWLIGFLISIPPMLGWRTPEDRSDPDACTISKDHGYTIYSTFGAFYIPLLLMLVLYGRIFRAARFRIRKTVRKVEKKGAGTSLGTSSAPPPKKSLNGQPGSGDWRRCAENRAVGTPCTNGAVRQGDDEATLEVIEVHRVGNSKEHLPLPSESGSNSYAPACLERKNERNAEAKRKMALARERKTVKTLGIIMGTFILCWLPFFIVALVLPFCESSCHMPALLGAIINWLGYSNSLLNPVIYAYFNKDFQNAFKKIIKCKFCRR
# assay-remarks: inhibition of 5-HT1A serotonin receptor binding (3H-8-OH-DPAT)
# Set-up: species or system male Sprague Dawley rats
# measurement-parameters: rat hippocampal tissue
readout-kind: Ki

cpd-smiles | result
COc1ccccc1N1CCN(CCCNC(=O)C23CC4CC(CC(C4)C2)C3)CC1 | 1 nM
O=C(NCCCN1CCN(c2cccc(Cl)c2)CC1)C12CC3CC(CC1C3)C2 | 20 nM
O=C(NCCCN1CCN(c2ncccn2)CC1)C12CC3CC(CC1C3)C2 | 67 nM
O=C(NCCN1CCN(c2ncccn2)CC1)C12CC3CC(CC(C3)C1)C2 | 1 nM

====

inhibition at 1 µM reference
# assay-system: 5-HT1A serotonin receptor (Rattus norvegicus, UniProt P19327)
# Construct: Hippocampal tissue from male Sprague Dawley rats is dissected and homogenized; from tissue; host or cells: hippocampus of male Sprague Dawley rats, membrane homogenate
# Sequence (P19327 1-422): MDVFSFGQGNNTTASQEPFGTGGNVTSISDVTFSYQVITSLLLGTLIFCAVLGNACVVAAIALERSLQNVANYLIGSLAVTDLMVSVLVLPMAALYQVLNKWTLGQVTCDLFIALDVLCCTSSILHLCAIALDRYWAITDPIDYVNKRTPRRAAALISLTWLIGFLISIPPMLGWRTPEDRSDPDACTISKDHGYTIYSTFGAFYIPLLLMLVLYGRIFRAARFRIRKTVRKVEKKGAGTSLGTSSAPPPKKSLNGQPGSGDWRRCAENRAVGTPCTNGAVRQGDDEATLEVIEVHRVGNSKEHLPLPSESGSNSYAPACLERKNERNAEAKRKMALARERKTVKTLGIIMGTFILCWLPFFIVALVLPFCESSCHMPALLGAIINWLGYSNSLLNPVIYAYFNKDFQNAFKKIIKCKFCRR
# assay-remarks: inhibition of 5-HT1A serotonin receptor binding (3H-8-OH-DPAT)
# Set-up: species or system male Sprague Dawley rats
# measurement-parameters: at 1 µM, rat hippocampal tissue

compound | assay-system | inhibition at 1 µM, %
O=C(NCCCN1CCN(c2ncccn2)CC1)C12CC3CC(CC1C3)C2 | 5-HT1A serotonin receptor (Rattus norvegicus, UniProt P19327) | 88
COc1ccccc1N1CCN(CCCNC(=O)C23CC4CC(CC(C4)C2)C3)CC1 | 5-HT1A serotonin receptor (Rattus norvegicus, UniProt P19327) | 98
O=C1CC2(CCCC2)CC(=O)N1CCCCN1CCN(c2ncccn2)CC1 [Buspirone, reference compound] | 5-HT1A serotonin receptor (Rattus norvegicus, UniProt P19327) | 94
COc1ccccc1N1CCN(CCNC(=O)CC23CC4CC(CC(C)(C4)C2)C3)CC1 | 5-HT1A serotonin receptor (Rattus norvegicus, UniProt P19327) | 98
COc1ccccc1N1CCN(CCCNC(=O)c2cc3ccccc3o2)CC1 | 5-HT1A serotonin receptor (Rattus norvegicus, UniProt P19327) | 94
COc1ccccc1N1CCN(CCCNC(=O)c2cc3ccccc3[nH]2)CC1 | 5-HT1A serotonin receptor (Rattus norvegicus, UniProt P19327) | 91
COc1ccccc1N1CCN(CCCNC(=O)C23CC4CC(CC2C4)C3)CC1 | 5-HT1A serotonin receptor (Rattus norvegicus, UniProt P19327) | 99
O=C(NCCCN1CCN(c2ncccn2)CC1)C12CC3CC(CC(C3)C1)C2 | 5-HT1A serotonin receptor (Rattus norvegicus, UniProt P19327) | 82
CC12CC3CC(C1)CC(CC(=O)NCCN1CCN(c4cccc(Cl)c4)CC1)(C3)C2 | 5-HT1A serotonin receptor (Rattus norvegicus, UniProt P19327) | 91
O=C(NCCCN1CCN(c2cccc(Cl)c2)CC1)C12CC3CC(CC(C3)C1)C2 | 5-HT1A serotonin receptor (Rattus norvegicus, UniProt P19327) | 94
O=C(NCCN1CCN(c2ncccn2)CC1)C12CC3CC(CC1C3)C2 | 5-HT1A serotonin receptor (Rattus norvegicus, UniProt P19327) | 97
O=C(NCCN1CCN(c2ncccn2)CC1)c1cc2ccccc2o1 | 5-HT1A serotonin receptor (Rattus norvegicus, UniProt P19327) | 83
COc1ccccc1N1CCN(CCNC(=O)C23CC4CC(CC(C4)C2)C3)CC1 | 5-HT1A serotonin receptor (Rattus norvegicus, UniProt P19327) | 97
CC12CC3CC(C1)CC(CC(=O)NCCN1CCN(c4ncccn4)CC1)(C3)C2 | 5-HT1A serotonin receptor (Rattus norvegicus, UniProt P19327) | 93
O=C(NCCN1CCN(c2cccc(Cl)c2)CC1)C12CC3CC(CC(C3)C1)C2 | 5-HT1A serotonin receptor (Rattus norvegicus, UniProt P19327) | 100
O=C(NCCN1CCN(c2ncccn2)CC1)C12CC3CC(CC(C3)C1)C2 | 5-HT1A serotonin receptor (Rattus norvegicus, UniProt P19327) | 97
